tested on: skin cancer cell line, A431; experiment: Inhibitory effect on growth of cancer cell line A431, SRB; format: cell-based; conditions: Homo sapiens, A-431, 72 h, overexpressed EGFR1 (HER-1)
Response field label takes TRUE when IC50 is strictly below 0.09 µM and FALSE in all other cases.

• C=CCCOc1cc2ncnc(Nc3ccc(Br)cc3F)c2cc1NC(=O)C=C = FALSE
• C=CC(=O)Nc1cc2c(Nc3ccc(Br)cc3F)ncnc2cc1OCCNC(=O)N1CCN(C(C)=O)CC1 = TRUE
• C=CC(=O)Nc1cc2c(Nc3ccc(Br)cc3F)ncnc2cc1OCCCNC(=O)C(F)(F)F = FALSE
• C=CC(=O)Nc1cc2c(Nc3cc(OC)c(Cl)cc3F)ncnc2cc1OCCNC(C)=O = TRUE
• C=CC(=O)Nc1cc2c(Nc3ccc(Br)cc3F)ncnc2cc1SCCNC(C)=O = FALSE
• C=CC(=O)Nc1cc2c(Nc3cc(Cl)c(Cl)cc3F)ncnc2cc1OCCN(C)C = FALSE
• C=CC(=O)Nc1cc2c(Nc3ccc(F)cc3F)ncnc2cc1OCCNC(=O)CN(C)C = FALSE
• C=CC(=O)Nc1cc2c(Nc3ccc(Br)cc3F)ncnc2cc1OCCNC(=O)CCO = TRUE
